experiment: gradient 5% acetonitrile 3 min, to 50% in 2 min, to 85% in 15 min, held 3 min, 100 µL/min; conditions: column: Zorbax Extend-C18 2.1 x 50 mm; eluents: water / acetonitrile, 0.1% formic acid
Is RP-LC retention time at least 700 s? Then Met. If not, Not met.

**Query** Exam item: decide whether the reported RP-LC retention time for Cc1nc(-c2ccc(-c3noc(C(C)Oc4ccccc4)n3)cc2)cs1 (stereo not given) is at least 700 s.
**Result** Met

**Query** Given the entry `O=C(c1nc(-c2cccs2)cs1)N1CCCC1` , answer whether its RP-LC retention time meets or surpasses 700 s.
**Result** Met

**Query** Test whether the compound `Cc1cc(C(=O)NCc2ccc(N(C)C)cc2)c2c(=O)n(C)c(=O)n(C)c2n1` records RP-LC retention time of 700 s or higher.
**Result** Not met

**Query** // inclusive: RP-LC retention time at least 700 s? input: `CCc1nn(C)c(=O)c2cc(S(=O)(=O)NCc3ccc(F)cc3Cl)cn12`
**Result** Met

**Query** Check this compound for RP-LC retention time at or above 700 s: `CCCn1cc(CCNC(=O)c2cccc(Cl)c2)c2cccnc21`
**Result** Met

**Query** Does RP-LC retention time meet or surpass 700 s for `CCOc1ccc(-c2ccc(=O)n(CCNC(=O)c3ccc(N(C)C)cc3)n2)cc1` ?
**Result** Met

**Query** Exam item: decide whether the reported RP-LC retention time for `O=C(NC1CC1)c1ccccc1OCC1CCN(C(=O)c2ccc(F)cc2)CC1` is at least 700 s.
**Result** Met

**Query** Exam item: decide whether the reported RP-LC retention time for `COc1cccc(S(=O)(=O)N2C[C@@H]3C[C@H]2C[C@@H]3NC(=O)c2ccccc2)c1` is at least 700 s.
**Result** Met

**Query** Item `CN(C)C(=O)c1ccc2c(c1)N(CC(=O)Nc1ccc(Cl)cc1)C(=O)CS2` with RP-LC retention time of 700 s or above?
**Result** Met

**Query** Hi team, for `O=C(NCCc1c[nH]c2ccccc12)c1noc2c1CSc1ccccc1-2` , is the recorded RP-LC retention time at or above 700 s?
**Result** Met

**Query** Reported RP-LC retention time at or above 700 s? `O=C1CCN(C(=O)C2CCN(C(=O)c3ccco3)CC2)CCCCCCN1`
**Result** Not met

**Query** # bool: RP-LC retention time of `O=C(c1ccco1)N1CCN(C(=O)c2c3c(nc4ccccc24)C(=O)N(C2CCCCC2)C3)CC1` >= 700 s
**Result** Met

**Query** Entry `CCCNC(=O)C1CCN(c2nc3ccsc3c(=O)n2Cc2ccccc2)CC1` : is its RP-LC retention time no less than 700 s?
**Result** Met

**Query** Please check the record `Cc1cc(OCCN2CC2)c2ccccc2n1` and state if its RP-LC retention time is at or above 700 s.
**Result** Not met

**Query** Please indicate if the recorded RP-LC retention time for `Cc1ccc(CNS(=O)(=O)c2cc3n(c2)CCCNC3=O)cc1` meets or exceeds 700 s.
**Result** Not met

**Query** Could you please find out whether `CN1c2cc(Cl)ccc2C(=O)NC12CCN(C(=O)Nc1ccccc1)CC2` has RP-LC retention time that meets 700 s or exceeds it?
**Result** Met

**Query** Please check the record `CCOC(=O)c1c(C)oc2nc(C)nc(NCc3ccc(OC)cc3OC)c12` and state if its RP-LC retention time is at or above 700 s.
**Result** Met

src = the METLIN SMRT retention time set (Domingo-Almenara et al. 2019)
